- System: Fibroblast
- Measurement Notes: Multiplex assay against human fibroblast
- Type: toxicity, cell-based
- Condition: 48 h, 10 µM, compound concentration 10 uM, replicate 1

Compound: COc1cc(N2CCC(N(C)C)CC2)ccc1Nc1ncc(Cl)c(Nc2ccccc2P(C)(C)=O)n1
Population Fragmented Nuclei (%): 47
//
Compound: CC(C)N1CCC(C)(C)c2cc(C#Cc3ccc(C(=O)O)cc3)ccc21
Population Fragmented Nuclei (%): 90
//
Compound: Cc1nc(Cc2cccc(C(F)(F)F)c2)sc1-c1ccc(C(N)=O)nc1 [TP-024n]
Population Fragmented Nuclei (%): 19
//
Compound: CNc1oc(-c2cccc3ccccc23)nc1C#N
Population Fragmented Nuclei (%): 47
//
Compound: O=C(O)c1ccc2cc(-c3ccc(O)c(C45CC6CC(CC(C6)C4)C5)c3)ccc2c1
Population Fragmented Nuclei (%): 52
//
Compound: Nc1nc2c(c(N3CCNCC3)n1)CCC1=C2[C@@H]2CCCC[C@@H]2O1
Population Fragmented Nuclei (%): 20
//
Compound: COc1cc2c(NC3CCN(C(C)C)CC3)nc(N3CCC(F)(F)CC3)nc2cc1OCCCN1CCCC1
Population Fragmented Nuclei (%): 19
//
Compound: CCc1cc2c(cc1CC)CC(NC[C@H](O)c1ccc(O)c3[nH]c(=O)ccc13)C2
Population Fragmented Nuclei (%): 38
//
Compound: CCC(=O)O[C@]1(C(=O)SCF)[C@H](C)C[C@H]2[C@@H]3C[C@H](F)C4=CC(=O)C=C[C@]4(C)[C@@]3(F)[C@@H](O)C[C@@]21C [FLUTICASONE PROPIONATE]
Population Fragmented Nuclei (%): 38
//
Compound: CC(=O)c1cc(-c2cc(C(=O)NC3CC3)ccc2C)c2ncccn12
Population Fragmented Nuclei (%): 30
//
Compound: CCn1c(-c2nonc2N)nc2cnc(Oc3cccc(NC(=O)c4ccc(OCCN5CCOCC5)cc4)c3)cc21 [GSK-269962A]
Population Fragmented Nuclei (%): 36
//
Compound: Cl.Cl.Nc1ncnc2c1c(-c1cccc(OCc3ccccc3)c1)cn2[C@H]1C[C@@H](CN2CCC2)C1
Population Fragmented Nuclei (%): 34
//
Compound: Nc1ccc(C(=O)Nc2cccc(-c3nc(N4CCOCC4)c4oc5ncccc5c4n3)c2)cn1
Population Fragmented Nuclei (%): 51
//
Compound: COc1ccc(NS(=O)(=O)c2sc3ccc(Cl)cc3c2C)cc1N1CCNCC1.Cl
Population Fragmented Nuclei (%): 33
//
Compound: Cc1cc2c(cc1N1C(=O)c3cccc4c(CCCO)ccc(c34)C1=O)n(C)c(=O)n2C
Population Fragmented Nuclei (%): 35
//
Compound: C1=N/C2=N/c3ccc(OCCN4CCCC4)c(c3)COC/C=C\COCc3cccc(c3)C(=C1)N2
Population Fragmented Nuclei (%): 50
//
Compound: CCCn1c(=O)c2[nH]c(C34CC5CC(CC3C5)C4)nc2n(CCC)c1=O
Population Fragmented Nuclei (%): 31
//
Compound: CC(C)Oc1ccc(C(=O)N[C@H](CNC(=O)CN(C)C)Cc2ccc(-c3cn4cccc([C@H](C)O)c4n3)cc2)cc1Cl [GSK-923295A]
Population Fragmented Nuclei (%): 35

----------
- System: Fibroblast
- Measurement Notes: Multiplex assay against human fibroblast
- Type: toxicity, cell-based
- Condition: 12 h, 1 µM, compound concentration 1 uM, replicate 2
# Population Healthy Nuclei (%) values compiled below
Outcome Measure: Population Healthy Nuclei (%)

Compound: CCOc1cc2ncc(C#N)c(Nc3ccc(OCc4cccc(F)c4)c(Cl)c3)c2cc1NC(=O)/C=C/CN(C)C
Meas Value: 31
//
Compound: Cc1nc(Cc2cccc(C(F)(F)F)c2)sc1-c1ccc(C(N)=O)nc1 [TP-024n]
Meas Value: 94
//
Compound: Nc1ccc(C(=O)Nc2cccc(-c3nc(N4CCOCC4)c4oc5ncccc5c4n3)c2)cn1
Meas Value: 61
//
Compound: CNC(=O)c1cc(Oc2ccc(NC(=O)Nc3cc(C(C)(C)C)nn3-c3ccc4ncccc4c3)c(F)c2)ccn1
Meas Value: 32
//
Compound: Cl.Cl.NC1(c2ccc(-c3nc4ccn5c(=O)[nH]nc5c4cc3-c3ccccc3)cc2)CCC1
Meas Value: 35
//
Compound: CCC(=O)O[C@]1(C(=O)SCF)[C@H](C)C[C@H]2[C@@H]3C[C@H](F)C4=CC(=O)C=C[C@]4(C)[C@@]3(F)[C@@H](O)C[C@@]21C [FLUTICASONE PROPIONATE]
Meas Value: 78
//
Compound: Cc1cc2c(cc1N1C(=O)c3cccc4c(CCCO)ccc(c34)C1=O)n(C)c(=O)n2C
Meas Value: 90
//
Compound: CCCn1c(=O)c2[nH]c(C34CC5CC(CC3C5)C4)nc2n(CCC)c1=O
Meas Value: 88
//
Compound: Cc1cn(-c2cc(NC(=O)c3ccc4c(c3)CN(c3cncnc3)C[C@@H]4C)cc(C(F)(F)F)c2)cn1
Meas Value: 31
//
Compound: CN(C)C/C=C/C(=O)Nc1cc2c(Nc3ccc(F)c(Cl)c3)ncnc2cc1O[C@H]1CCOC1.O=C(O)/C=C\C(=O)O.O=C(O)/C=C\C(=O)O [AFATINIB DIMALEATE]
Meas Value: 21
//
Compound: CNC(=O)c1nn(C)c2c1C(C)(C)Cc1cnc(Nc3ccc(N4CCN(C)CC4)cc3)nc1-2
Meas Value: 34
//
Compound: Cl.Cl.Nc1ncnc2c1c(-c1cccc(OCc3ccccc3)c1)cn2[C@H]1C[C@@H](CN2CCC2)C1
Meas Value: 67
//
Compound: COc1cc(N2CCC(N(C)C)CC2)ccc1Nc1ncc(Cl)c(Nc2ccccc2P(C)(C)=O)n1
Meas Value: 31
//
Compound: CCc1cc2c(cc1CC)CC(NC[C@H](O)c1ccc(O)c3[nH]c(=O)ccc13)C2
Meas Value: 92
//
Compound: COc1cc2c(NC3CCN(C(C)C)CC3)nc(N3CCC(F)(F)CC3)nc2cc1OCCCN1CCCC1
Meas Value: 67
//
Compound: c1ccc2oc(-c3csc(C4CCN(Cc5nc6ncccc6[nH]5)CC4)n3)cc2c1
Meas Value: 28

----------
- System: Fibroblast
- Measurement Notes: Multiplex assay against human fibroblast
- Assay type: toxicity, cell-based
- Condition: 48 h, 10 µM, compound concentration 10 uM, replicate 2
Outcome Measure: Population Healthy Nuclei (%)

Compound: CC(=O)c1cc(-c2cc(C(=O)NC3CC3)ccc2C)c2ncccn12
Meas Value: 69
//
Compound: O=C(O)c1ccc2cc(-c3ccc(O)c(C45CC6CC(CC(C6)C4)C5)c3)ccc2c1
Meas Value: 58
//
Compound: CC(C)Oc1ccc(C(=O)N[C@H](CNC(=O)CN(C)C)Cc2ccc(-c3cn4cccc([C@H](C)O)c4n3)cc2)cc1Cl [GSK-923295A]
Meas Value: 55
//
Compound: COc1ccc(NS(=O)(=O)c2sc3ccc(Cl)cc3c2C)cc1N1CCNCC1.Cl
Meas Value: 26

----------
- System: Fibroblast
- Measurement Notes: Multiplex assay against human fibroblast
- Type: toxicity, cell-based
- Condition: 48 h, 1 µM, compound concentration 1 uM, replicate 2
Outcome Measure: Population Healthy Nuclei (%)

Compound: CCn1c(-c2nonc2N)nc2cnc(Oc3cccc(NC(=O)c4ccc(OCCN5CCOCC5)cc4)c3)cc21 [GSK-269962A]
Outcome Measure: Population Healthy Nuclei (%)
Meas Value: 69%
//
Compound: CCC(=O)O[C@]1(C(=O)SCF)[C@H](C)C[C@H]2[C@@H]3C[C@H](F)C4=CC(=O)C=C[C@]4(C)[C@@]3(F)[C@@H](O)C[C@@]21C [FLUTICASONE PROPIONATE]
Outcome Measure: Population Healthy Nuclei (%)
Meas Value: 72%
//
Compound: Cl.Cl.Nc1ncnc2c1c(-c1cccc(OCc3ccccc3)c1)cn2[C@H]1C[C@@H](CN2CCC2)C1
Outcome Measure: Population Healthy Nuclei (%)
Meas Value: 65%
//
Compound: CCCn1c(=O)c2[nH]c(C34CC5CC(CC3C5)C4)nc2n(CCC)c1=O [ROLOFYLLINE]
Outcome Measure: Population Healthy Nuclei (%)
Meas Value: 73%
//
Compound: COc1ccc(NS(=O)(=O)c2sc3ccc(Cl)cc3c2C)cc1N1CCNCC1.Cl
Outcome Measure: Population Healthy Nuclei (%)
Meas Value: 45%
//
Compound: CC(=O)c1cc(-c2cc(C(=O)NC3CC3)ccc2C)c2ncccn12
Outcome Measure: Population Healthy Nuclei (%)
Meas Value: 66%
//
Compound: Cc1cc2c(cc1N1C(=O)c3cccc4c(CCCO)ccc(c34)C1=O)n(C)c(=O)n2C
Outcome Measure: Population Healthy Nuclei (%)
Meas Value: 69%
//
Compound: CC(C)N1CCC(C)(C)c2cc(C#Cc3ccc(C(=O)O)cc3)ccc21
Outcome Measure: Population Healthy Nuclei (%)
Meas Value: 42%

----------
- Tested on: U2OS
- Measurement Notes: Multiplex assay against U2OS
- Format: toxicity, cell-based
- Condition: human, 24 h, 1 µM, compound concentration 1 uM, replicate 2
Quick rule: Population Healthy Nuclei (%) of at least 80% means YES, below that means NO.

Compound: CCc1cc2c(cc1CC)CC(NC[C@H](O)c1ccc(O)c3[nH]c(=O)ccc13)C2
Assayed Target: U2OS
Classification: YES
--
Compound: Cc1cn(-c2cc(NC(=O)c3ccc4c(c3)CN(c3cncnc3)C[C@@H]4C)cc(C(F)(F)F)c2)cn1
Assayed Target: U2OS
Classification: YES
--
Compound: CC(C)N1CCC(C)(C)c2cc(C#Cc3ccc(C(=O)O)cc3)ccc21
Assayed Target: U2OS
Classification: NO
--
Compound: COc1cc2c(NC3CCN(C(C)C)CC3)nc(N3CCC(F)(F)CC3)nc2cc1OCCCN1CCCC1
Assayed Target: U2OS
Classification: NO
--
Compound: CCn1c(-c2nonc2N)nc2cnc(Oc3cccc(NC(=O)c4ccc(OCCN5CCOCC5)cc4)c3)cc21 [GSK-269962A]
Assayed Target: U2OS
Classification: NO
--
Compound: Cc1nc(Cc2cccc(C(F)(F)F)c2)sc1-c1ccc(C(N)=O)nc1 [TP-024n]
Assayed Target: U2OS
Classification: YES
--
Compound: CCC(=O)O[C@]1(C(=O)SCF)[C@H](C)C[C@H]2[C@@H]3C[C@H](F)C4=CC(=O)C=C[C@]4(C)[C@@]3(F)[C@@H](O)C[C@@]21C [FLUTICASONE PROPIONATE]
Assayed Target: U2OS
Classification: YES
--
Compound: CCOc1cc(N2CCC(O)CC2)ccc1Nc1ncc2c(n1)N(C1CCCC1)CCC(=O)N2C
Assayed Target: U2OS
Classification: YES
--
Compound: c1ccc2oc(-c3csc(C4CCN(Cc5nc6ncccc6[nH]5)CC4)n3)cc2c1
Assayed Target: U2OS
Classification: YES
--
Compound: CCCn1c(=O)c2[nH]c(C34CC5CC(CC3C5)C4)nc2n(CCC)c1=O
Assayed Target: U2OS
Classification: YES
--
Compound: COc1ccc(NS(=O)(=O)c2sc3ccc(Cl)cc3c2C)cc1N1CCNCC1.Cl
Assayed Target: U2OS
Classification: NO
--
Compound: CC(C)Oc1ccc(C(=O)N[C@H](CNC(=O)CN(C)C)Cc2ccc(-c3cn4cccc([C@H](C)O)c4n3)cc2)cc1Cl [GSK-923295A]
Assayed Target: U2OS
Classification: NO
--
Compound: FC(F)c1nc2ccccc2n1-c1nc(N2CCOCC2)nc(N2CCOCC2)n1
Assayed Target: U2OS
Classification: YES
--
Compound: Nc1nc2c(c(N3CCNCC3)n1)CCC1=C2[C@@H]2CCCC[C@@H]2O1
Assayed Target: U2OS
Classification: NO
--
Compound: CNC(=O)c1nn(C)c2c1C(C)(C)Cc1cnc(Nc3ccc(N4CCN(C)CC4)cc3)nc1-2
Assayed Target: U2OS
Classification: NO
--
Compound: CNc1oc(-c2cccc3ccccc23)nc1C#N
Assayed Target: U2OS
Classification: NO
--
Compound: Nc1ccc(C(=O)Nc2cccc(-c3nc(N4CCOCC4)c4oc5ncccc5c4n3)c2)cn1
Assayed Target: U2OS
Classification: NO
--
Compound: N#Cc1cnc(Nc2cc(NC[C@H]3CNCCO3)c(C(F)(F)F)cn2)cn1
Assayed Target: U2OS
Classification: YES
--
Compound: Cl.Cl.Nc1ncnc2c1c(-c1cccc(OCc3ccccc3)c1)cn2[C@H]1C[C@@H](CN2CCC2)C1
Assayed Target: U2OS
Classification: NO
--
Compound: CC(=O)c1cc(-c2cc(C(=O)NC3CC3)ccc2C)c2ncccn12
Assayed Target: U2OS
Classification: YES
--
Compound: CN(C)CCOc1ccc(-c2nc(-c3ccncc3)c(-c3ccc4c(c3)CC/C4=N\O)[nH]2)cc1
Assayed Target: U2OS
Classification: NO
--
Compound: COc1cc2c(Nc3ccc(NC(=O)c4ccccc4)cc3)ncnc2cc1OCCCN1CCOCC1
Assayed Target: U2OS
Classification: NO
--
Compound: O=C(O)c1ccc2cc(-c3ccc(O)c(C45CC6CC(CC(C6)C4)C5)c3)ccc2c1
Assayed Target: U2OS
Classification: YES
--
Compound: CN(C)C/C=C/C(=O)Nc1cc2c(Nc3ccc(F)c(Cl)c3)ncnc2cc1O[C@H]1CCOC1.O=C(O)/C=C\C(=O)O.O=C(O)/C=C\C(=O)O [AFATINIB DIMALEATE]
Assayed Target: U2OS
Classification: YES
--
Compound: Cc1cc2c(cc1N1C(=O)c3cccc4c(CCCO)ccc(c34)C1=O)n(C)c(=O)n2C
Assayed Target: U2OS
Classification: YES

Reference source: ChEMBL document CHEMBL4689842
